The reader will find reported Percent Effect values listed item by item below.
# tgt: Ubiquitin-activating enzyme e1, putative (Leishmania donovani (strain BPK282A1))
# method-notes: Leishmania donovani Ubiquitin Activating Enzyme (LdE1)
# Assay type: functional
# Design: scale not given: direction of the effect not stated beside the values
# run-conditions: 30 µM
Potency and affinity values are given separately.

molecule | Percent Effect
COCCN(Cc1ccoc1)C(=O)c1cccnc1SC | 5.2%
Cn1cc(CN2CCC3(CCCN(Cc4ccccn4)C3)CC2)cn1 | -5.48%
CCCNC(=O)Cn1nc(C(C)C)c2cnn(C(C)(C)C)c2c1=O | 5.48%
CCC(=O)NCc1cc(Br)ccc1OC(F)F | 8%
NS(=O)(=O)c1ccc(NC(=O)CSc2ccc3c(c2)CCC3)cc1 | -2.7%
Cc1nc(CN2C[C@@H]3CN(C(=O)c4cccn4C)C[C@@H]3C2=O)cs1 | 13.5%
Cn1cc(-c2cnc(N3CCOCC3)nc2)cc1C(=O)O | 5.41%
Cc1ccc(C(=O)N2CCN(C(=O)Nc3ccccn3)CC2)o1 | -2.6%
COc1ccc(-c2nccnc2C2CCN(C(C)=O)CC2)cc1 | 25.7%
O=C(CCNC(=O)c1ccccc1)Nc1ccncc1 | 10.5%
Cn1cnnc1C1CCCN(C(=O)Cc2ccc3c(c2)OCCO3)C1 (centres undefined) | 13%
CC(=O)Nc1nc(CN2CCOC(Cn3cc(C)cn3)C2)cs1 (centres undefined) | 15.6%
O=C(N1CCOCC1)N1CCc2ncnc(NC3CC3)c2CC1 | 0%
CCn1c(C)nnc1CN(C)C1CCN(CCc2ccncc2)C1 (centres undefined) | 20.8%
COCCN1C(=O)[C@]2(CC[C@@H]3CN(C(=O)NCC(C)C)C[C@@H]32)N=C1C | 5.33%
CN(CC(=O)N1CCN(c2ccccc2F)CC1)c1cnccn1 | 16.2%
Cc1occc1C(=O)N1CCC[C@]2(C[C@@H](OCc3ccncc3)CO2)C1 | 10.7%
Cn1cnnc1C1CCCN(C(=O)c2cnc3ccccc3n2)C1 (centres undefined) | -18.2%
O=C(c1ccc(C2CCCO2)s1)N1Cc2ccccc2C1 (centres undefined) | -2.7%
c1ccc(-c2ccc3nc(C4CCN(CC5CC5)CC4)nn3c2)cc1 | -5.48%
CN(C)C(=O)NC[C@H]1OC[C@@H]2CCN(Cc3ccoc3)C[C@@H]21 | 2.67%
COc1ccc(C2SC(C)=Nc3c2c(=O)[nH]n3C2CCCCC2)cc1O (centres undefined) | 17.3%
CSc1ccc(NC(=O)Nc2ccc3c(c2)N(S(C)(=O)=O)CC3)cc1 | -23.4%
CCc1cc(NCc2ccccc2CN2CCCC2)n2ncnc2n1 | 0%

* * *

# tgt: AMP-activated protein kinase, AMPK (Homo sapiens) (UniProt P54646+O43741+P54619+Q9UGJ0+Q9Y478+Q13131+Q9UGI9)
# method-notes: AMP-dependent Kinase enzyme assay. An in vitro enzyme assay that detects ADP turnover that is directly proportional to AMPK activity. This uses naive AMPK that is activated during the assay with MK-8722
# Type: functional
# Design: scale not given: direction of the effect not stated beside the values
# run-conditions: 30 µM
endpoint: Percent Effect (%)

molecule | endpoint | reading
O=C(Cc1ccsc1)N1CCCC(c2n[nH]c3nccnc23)C1 (stereo unspecified) | Percent Effect | 11.9
Oc1ccc(N2CCN(Cc3cc4c(cc3Br)OCCO4)CC2)cc1 | Percent Effect | 44.8
CC(NC(=O)NCCNc1ncccn1)c1cccs1 (stereo unspecified) | Percent Effect | 32.1
CCN(CCNC(=O)c1ccccc1Br)C1CC1 | Percent Effect | -0.476
OCCN1CCN(Cc2coc(-c3ccc(Cl)cc3)n2)CC1 | Percent Effect | 3.9
c1cnc(-c2cnc(N3CCSCC3)nc2C2CC2)cn1 | Percent Effect | 12.3
